Target: Ba/F3 stable cells (Homo sapiens, UniProt P00533, DUP768-770, cells depend on it)
Construct: EC50 Ba/F3-EGFR D770-N771insSVD; other: Ba/F3-EGFR D770-N771insSVD cells, 72 h, CCK-8
Sequence (P00533 with tags, fused parts or gaps DUP768-770): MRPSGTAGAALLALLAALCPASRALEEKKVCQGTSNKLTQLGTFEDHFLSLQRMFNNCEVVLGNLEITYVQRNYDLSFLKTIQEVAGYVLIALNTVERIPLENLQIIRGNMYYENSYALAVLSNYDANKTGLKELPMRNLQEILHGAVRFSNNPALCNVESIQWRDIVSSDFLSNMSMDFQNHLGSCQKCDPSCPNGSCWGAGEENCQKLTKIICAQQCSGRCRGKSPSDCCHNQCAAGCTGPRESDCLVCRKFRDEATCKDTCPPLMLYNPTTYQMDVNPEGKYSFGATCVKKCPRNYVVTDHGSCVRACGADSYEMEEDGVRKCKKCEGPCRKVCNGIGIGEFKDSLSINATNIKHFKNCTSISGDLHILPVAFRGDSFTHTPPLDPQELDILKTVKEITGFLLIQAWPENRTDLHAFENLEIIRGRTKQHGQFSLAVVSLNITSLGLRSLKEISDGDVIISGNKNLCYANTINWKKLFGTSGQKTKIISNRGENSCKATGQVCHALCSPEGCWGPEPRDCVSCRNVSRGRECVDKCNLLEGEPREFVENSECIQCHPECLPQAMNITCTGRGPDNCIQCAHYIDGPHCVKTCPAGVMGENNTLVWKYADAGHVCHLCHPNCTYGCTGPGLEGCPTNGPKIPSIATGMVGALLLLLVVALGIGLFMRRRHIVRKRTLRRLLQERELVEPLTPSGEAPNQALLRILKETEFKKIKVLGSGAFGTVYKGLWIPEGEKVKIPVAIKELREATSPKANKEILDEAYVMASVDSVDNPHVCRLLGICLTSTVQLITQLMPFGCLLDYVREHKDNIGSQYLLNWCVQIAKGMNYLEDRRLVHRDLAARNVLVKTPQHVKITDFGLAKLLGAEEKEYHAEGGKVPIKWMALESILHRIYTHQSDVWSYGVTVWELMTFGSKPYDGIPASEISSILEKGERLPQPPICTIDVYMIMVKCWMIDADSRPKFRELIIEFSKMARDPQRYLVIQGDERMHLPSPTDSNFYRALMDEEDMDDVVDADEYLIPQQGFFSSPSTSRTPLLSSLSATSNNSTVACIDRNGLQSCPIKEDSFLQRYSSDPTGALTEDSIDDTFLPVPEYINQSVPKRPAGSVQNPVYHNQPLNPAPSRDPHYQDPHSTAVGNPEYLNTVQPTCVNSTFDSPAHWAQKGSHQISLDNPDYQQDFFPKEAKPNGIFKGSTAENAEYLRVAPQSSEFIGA
Assay: EC50 assay: Ba/F3 stable cell proliferation (CCK-8, 72 h)
Details: Ba/F3-EGFR D770-N771insSVD cells
METRIC_NAME: EC50

COMPOUND: C=CC(=O)N1CCC(Oc2cc3c(Nc4ccnc5ccccc45)ncnc3cc2OC)CC1 [Compound 162]
TARGET_OR_SYSTEM: Ba/F3 stable cells (Homo sapiens, UniProt P00533, DUP768-770, cells depend on it)
EC50: > 1000 nM

INPUT: Quick one: EC50 of C=CC(=O)N1CCC(Oc2cc3c(NCc4cccc(I)c4)ncnc3cc2OC)CC1 [Compound 125] ?
OUTPUT: 200 to 1000 nM

INPUT: // returns reported EC50 for input C=CC(=O)N1CCC(Oc2cc3c(Nc4nccc5ccccc45)ncnc3cc2OC)CC1 [Compound 161]
OUTPUT: > 1000 nM

INPUT: Sample C=CC(=O)NC1CC(Oc2cc3c(Nc4ccc5ccccc5c4)ncnc3cc2OC)C1 (centres unmarked) [Compound 80] — what was its EC50?
OUTPUT: > 1000 nM

INPUT: Entry C=CC(=O)N1CC(c2cc3c(Nc4ccc(Cl)c(Cl)c4F)ncnc3cc2OC(F)F)C1 [Compound 23] : reported EC50 = ?
OUTPUT: ≤ 200 nM
